# Experimental System: Cytochrome P450 1A2 (Homo sapiens) (UniProt P05177)
# Sequence (P05177 whole entry, looked up): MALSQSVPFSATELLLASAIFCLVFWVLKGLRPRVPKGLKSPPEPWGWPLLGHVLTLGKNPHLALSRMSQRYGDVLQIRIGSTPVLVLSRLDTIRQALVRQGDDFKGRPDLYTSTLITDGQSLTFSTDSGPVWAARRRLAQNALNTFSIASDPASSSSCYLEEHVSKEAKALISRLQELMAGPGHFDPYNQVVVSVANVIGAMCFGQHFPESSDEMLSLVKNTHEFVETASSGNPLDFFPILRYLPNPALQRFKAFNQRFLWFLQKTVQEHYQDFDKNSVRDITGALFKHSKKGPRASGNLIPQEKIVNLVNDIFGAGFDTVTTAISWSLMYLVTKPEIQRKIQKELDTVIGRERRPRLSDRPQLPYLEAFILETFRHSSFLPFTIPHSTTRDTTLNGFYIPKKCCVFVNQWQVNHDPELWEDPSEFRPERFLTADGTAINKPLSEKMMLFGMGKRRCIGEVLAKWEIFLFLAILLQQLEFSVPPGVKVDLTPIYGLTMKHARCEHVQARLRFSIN
# Assay Protocol: p450-cyp1a2 (AID 410)
# Test Parameters: recombinant CYP1A2, luciferin-ME demethylation, luminescence; series mostly up to 25.6 µM
Results filed as inconclusive are left out. The source made the active and inactive calls. The call rests on the fitted dose curve.
// classify into active, inactive

Examples from the recorded data:
CCCn1cnc2c1c(=O)n(CCCCC(C)=O)c(=O)n2C | active
Cc1cc2c(cc1S(N)(=O)=O)S(=O)(=O)CCC2 | inactive
Nc1ccc(S(=O)(=O)NC(=O)c2ccccc2)cc1 | inactive

Data request: Assay result, entry "CCN(CC)CCNC(=O)c1cc(Cl)c(N)cc1OC" — outcome?
Data returned: active

Data request: Param item: "CCCCN1CCCC[C@H]1C(=O)Nc1c(C)cccc1C"
Data returned: active

Data request: // same read-out, input: "c1ccc2c(CC3=NCCN3)cccc2c1"
Data returned: inactive

Data request: // next record "Nc1cc(=O)[nH]c(N)n1"
Data returned: inactive

====

# Assay Protocol: Validation qHTS assay for inhibitors of Activation Induced Cytidine Deaminase (AID): UDG Counterscreen signal (AID 1347427); further: 0% is about no effect
# Test Parameters: biochemical UDG counterscreen, fluorescence signal; series mostly up to 115 µM
Active and inactive are the calls of the source. Calls follow the shape of the dose curve; as a rule, active = well fitted curve in the direction sought with a large enough effect; inconclusive = small, poorly fitted or top-dose-only effect, or another doubt; inactive = no such curve, though single readings can be large or run the other way.
Property Name: outcome

Below, each entry is followed by its recorded outcome result.
COCCOC(=O)C1=C(C)NC(C)=C(C(=O)OC/C=C/c2ccccc2)C1c1cccc([N+](=O)[O-])c1 (configuration not stated) | inactive
N=c1c[n+](N2CCOCC2)[n-]o1 | inactive
Nc1ncnc2c1ncn2[C@@H]1O[C@H](CO)[C@@H](O)[C@H]1O | inactive
CN(C)CCC=C1c2ccccc2CCc2ccccc21 | inactive
CN1CCN(C2Cc3ccccc3Sc3ccc(Cl)cc32)CC1 (configuration not stated) | inactive

Data request: Please report the recorded outcome for CN(C)CCOC(C)(c1ccccc1)c1ccccn1 (configuration not stated) .
Data returned: inactive

Data request: And for "CN(C)CC[C@@H](c1ccc(Cl)cc1)c1ccccn1" ?
Data returned: inactive

Data request: How about this molecule: "CC1=C(CC(=O)O)c2cc(F)ccc2/C1=C\c1ccc(S(C)(=O)=O)cc1"
Data returned: inactive

Data request: Now the same for "COC(=O)C1=C(C)NC(C)=C(C(=O)OC)C1c1ccccc1[N+](=O)[O-]"
Data returned: inactive

Data request: Continue with "OCCN1CCN(CCCN2c3ccccc3Sc3ccc(Cl)cc32)CC1"
Data returned: inactive

Data request: For CCN(CC)C(C)CN1c2ccccc2Sc2ccccc21 (configuration not stated) then?
Data returned: inactive

Data request: Next record, please: "CCCn1cnc2c1c(=O)n(CCCCC(C)=O)c(=O)n2C"
Data returned: inactive

====

Overview of reported activity, negative = inhibition across a group of molecules:
# Assay Protocol: Stat Signaling Pathway (AID 446);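 further: ME-180 cervical cancer cells given 40 pM IL-6 alongside compound; SIE-controlled beta-lactamase reporter measured as 460/530 nm FRET emission ratio; on the % scale 0 is the no-effect control and ±100 the full control effect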
# Test Parameters: ME-180 (cervical carcinoma) SIE beta-lactamase reporter, IL-6 stimulated, 5 h; at 17.2 µM (top of the series)
Records with an inconclusive call do not appear.
Quick note: give the figure in %, leave out the unit.

Reference set, count: 10
CCCCOc1cc(C(=O)OCCN(CC)CC)ccc1N | -0.0669
CCCc1c(OCCCCc2nn[nH]n2)ccc(C(C)=O)c1O | -12.8
Cn1cc[nH]c1=S | -3.77
CNC(=O)Oc1ccc2c(c1)[C@]1(C)CCN(C)[C@@H]1N2C | 4.34
C[C@@H]1C[C@H]2[C@@H]3C[C@H](F)C4=CC(=O)C=C[C@]4(C)[C@@]3(F)[C@@H](O)C[C@]2(C)[C@@]1(O)C(=O)CO | -0.0687
CN(C)CCOC(C)(c1ccccc1)c1ccccn1 (configuration not stated) | 5.21
CC1(C)OC(=O)NC1=O | 1.25
Nc1ccc(S(=O)(=O)Nc2ccc(Cl)nn2)cc1 | -3.21
Cc1cc2c(cc1S(N)(=O)=O)S(=O)(=O)CCC2 | -10.1
CC(CN1c2ccccc2Sc2ccccc21)N(C)C (configuration not stated) | -1.09

Data request: What does the record list as activity, negative = inhibition for CC1=C(CC(=O)O)c2cc(F)ccc2/C1=C\c1ccc(S(C)=O)cc1 (configuration not stated) ?
Data returned: 0.939

Data request: What do you get for CC(COc1ccccc1)NC(C)C(O)c1ccc(O)cc1 (configuration not stated) ?
Data returned: 20.7
